- System: LOX IMVI
- Assay comment: NCI tumour cell line growth inhibition, 48 h
The source made the active and inactive calls. Rule as the data show it: active = GI50 up to about 1.1 µM and inactive = higher.
Entry note: the call must match one of YES (active), NO (inactive)

These recorded examples may help you get a feel for the data.
| Compound | Cat |
| --- | --- |
| COC(=O)c1c(O)ccc2c1c1c(n2Cc2ccccc2)C(=O)c2ccccc2C1=O | NO |
| c1csc(-c2csc(-c3cccs3)c2)c1 | NO |
| Cc1cc(C)c2c(=O)n(CC(O)CN3CCN(CCOCCO)CC3)sc2n1 (stereo not given) | NO |
| Cc1ccc(C(=O)N/N=C(\N=N\c2ccc(C(=O)O)cc2)c2ccc(N(CCC#N)CCC#N)cc2C)cc1 | NO |

[in] Please state the recorded outcome for this compound: COCOc1cc(OC)c(Br)cc1C/C(=N/O)C(=O)OC
[out] NO

[in] Please state the recorded outcome for this compound: NC(=O)SCC(=O)Nc1ccc2ncccc2c1
[out] NO

[in] Please state the recorded outcome for this compound: O=C1CCC2=C(CCC2)N1CCc1ccc2c(c1)OCO2
[out] NO

[in] Please state the recorded outcome for this compound: Clc1ccc(COC(Cn2ccnc2)c2ccc(Cl)cc2Cl)c(Cl)c1 (stereo not given) [MICONAZOLE NITRATE]
[out] NO

[in] Please state the recorded outcome for this compound: C/C=C/C(O)P(=O)(OC)OC (stereo not given)
[out] YES

[in] Please state the recorded outcome for this compound: CCCCCCCCCCCCCCCCCCNc1ccn(C2OC(COP(=O)(O)OCC3OC(n4cc(F)c(NCCCCCCCCCCCCCCCCCC)nc4=O)CC3O)C(O)C2O)c(=O)n1 (stereo not given)
[out] NO

* * *

- Tested on: MDA-MB-435
- Assay comment: NCI tumour cell line growth inhibition, 48 h
Activity calls are given as the source filed them. Cut-off read from the data, not from the text of the source: active = GI50 up to about 1.1 µM and inactive = higher.
Entry note: the call must match one of TRUE (active), FALSE (inactive)

These recorded examples may help you get a feel for the data.
| Molecule | Cat |
| --- | --- |
| O=c1[nH]c(=O)n(C2CC(O)C(CO)O2)cc1C1=NC1 (configuration not stated) | FALSE |
| ClCCCN1CCN(CCCl)CC1 | FALSE |

[in] Please state the recorded outcome for this molecule: COc1cc(C(=O)Oc2c(C(C)=O)sc3c2c(=O)n(-c2ccccc2)c(=S)n3-c2ccccc2)cc(OC)c1OC
[out] FALSE

* * *

- System: SK-MEL-5
- Assay comment: NCI tumour cell line growth inhibition, 48 h
The source made the active and inactive calls. Cut-off read from the data, not from the text of the source: active = GI50 up to about 1.1 µM and inactive = higher.
Measurement label: GI50

Note to self: GI50 of COC(=O)NC1(NC(=O)OC)NC(=O)c2cc(OC)c(OC)cc2N1 with SK-MEL-5 was 32.3 µM (inactive)

Note to self: GI50 of COc1ccc(N(C(=O)Nc2ccc(Cl)c(Cl)c2)C2c3cccn3C(=O)N2c2ccc(Cl)c(Cl)c2)cc1 (stereo not given) with SK-MEL-5 was 70.5 µM (inactive)

Note to self: GI50 of CC(=O)C1=C(O)C2C3c4c[nH]c5cccc(c45)CC3C(C)(C)N2C1=O (stereo not given) with SK-MEL-5 was 11.7 µM (inactive)

Note to self: GI50 of O=C1C[C@@H]2[C@@H](C=CC23CCCC3)N1O with SK-MEL-5 was > 100 µM (inactive)

Note to self: GI50 of N=C(N)N/N=C/c1c(-c2ccc([N+](=O)[O-])cc2)nc2n1CCS2 with SK-MEL-5 was 16.1 µM (inactive)

* * *

# key: entry, value: GI50
- Tested on: OVCAR-3
- Assay comment: NCI tumour cell line growth inhibition, 48 h
Active and inactive are the calls of the source. Rule as the data show it: active = GI50 up to about 1.1 µM and inactive = higher.

Worked examples, 4 compounds total:
| Compound | GI50 |
| --- | --- |
| O=C(/C=C/c1ccccc1)CC(=O)CCC(=O)Nc1ccc(Cl)cc1 | > 100 µM (inactive) |
| Cc1ccc(S(=O)(=O)OC2CCN(C)CC2)cc1 | > 100 µM (inactive) |
| CCCCCCCCCCCCCCCCCCNc1ccn(C2OC(COP(=O)(O)OCC3OC(n4cc(F)c(NCCCCCCCCCCCCCCCCCC)nc4=O)CC3O)C(O)C2O)c(=O)n1 (stereo not given) | > 100 µM (inactive) |
| N#Cc1c(Cl)c2ccccc2n2c1nc1ccccc12 | 36.5 µM (inactive) |

Okay, next one:
The value of GI50 measured for the compound O=C1C=C(O)C(=Cc2c(O)cc(O)cc2O)C(O)=C1 turned out to be > 100 µM (inactive)

* * *

- Test system: SNB-75
- Assay comment: NCI tumour cell line growth inhibition, 48 h
Activity calls are given as the source filed them. No stated cut-off is given here; in the data, active = GI50 up to about 1.1 µM and inactive = higher.
Measurement label: GI50

Worked examples, 5 molecules total:
| Molecule | GI50 |
| --- | --- |
| CC(C)CC(NC(=O)C(C)(CI)Cc1ccccc1)C(=O)Nc1ccccc1 (stereo unspecified) | 86.5 µM (inactive) |
| CC(C)(C)C1=CC(=C2C(=O)C(=O)c3ccccc3C2=O)C=C(C(C)(C)C)C1=O | > 100 µM (inactive) |
| O=C(O)Cc1c(O)ccc2ccccc12 | > 100 µM (inactive) |
| CC(N)Cc1cccc(C(F)(F)F)c1 (stereo unspecified) | > 100 µM (inactive) |
| Cc1c(-c2ccccc2)oc(=O)c2ccccc12 | 12.4 µM (inactive) |

Okay, next one:
Note to self: GI50 of [O-]c1c2c(nn1-c1ccccc1)c1ccccc1c[n+]2Cc1ccccc1 with SNB-75 was 50.4 µM (inactive)

* * *

- System: 786-0
- Assay comment: NCI tumour cell line growth inhibition, 48 h
The source made the active and inactive calls. No stated cut-off is given here; in the data, active = GI50 up to about 1.1 µM and inactive = higher.
Measurement label: GI50

| Compound | GI50 |
| --- | --- |
| CCCCNC(=S)Nc1nc(C(=O)NNC(=S)NC2CCCCC2)cs1 | > 100 µM (inactive) |

The value of GI50 measured for the compound O=C(O)C(O)C(O)C(O)C(=O)CO (stereo unspecified) turned out to be > 100 µM (inactive)

* * *

- Tested on: SK-MEL-2
- Assay comment: NCI tumour cell line growth inhibition, 48 h
Active and inactive are the calls of the source. Cut-off read from the data, not from the text of the source: active = GI50 up to about 1.1 µM and inactive = higher.
Entry note: the call must match one of class 1 for active, class 0 for inactive

These recorded examples may help you get a feel for the data.
| Molecule | Cat |
| --- | --- |
| Nc1nc(=S)n(-c2ccc(Cl)cc2)c2nc3ccccc3cc12 | class 0 |
| OC1c2[nH]c3ccccc3c2CCN2CCCCC12 (stereo not given) | class 0 |
| CSC(C1c2ccccc2N(c2ccc(C)cc2)c2[nH]c(=O)n(C)c(=O)c21)S(=O)(=O)c1ccc(C)cc1 (stereo not given) | class 0 |
| CC(=O)O[C@H]1C(=O)[C@@]2(C)[C@H]([C@H](OC(=O)c3ccoc3)[C@]3(O)C[C@H](OC(=O)[C@H](O)[C@@H](NC(=O)c4ccccc4)c4ccccc4)C(C)=C1C3(C)C)[C@]1(OC(C)=O)CO[C@@H]1C[C@@H]2O | class 1 |
| C[N+]1(CCN=C=NC2CCCCC2)CCOCC1 | class 0 |
| CC1CCC2(NC1)OC1CC3C4CC=C5CC(OC6OC(CO)C(OC7OC(C)C(O)C(O)C7O)C(O)C6OC6OC(C)C(O)C(O)C6O)CCC5(C)C4CCC3(C)C1C2C (stereo not given) | class 0 |

[in] Please state the recorded outcome for this molecule: COC(=O)C(=O)c1c2ccccc2n2ccc3c4ccccc4[nH]c3c12
[out] class 0

[in] Please state the recorded outcome for this molecule: NC(=O)SCC(=O)Nc1ccc2ncccc2c1
[out] class 0

* * *

- Tested on: NCI-H23
- Assay comment: NCI tumour cell line growth inhibition, 48 h
Active and inactive are the calls of the source. Rule as the data show it: active = GI50 up to about 1.1 µM and inactive = higher.
Entry note: the call must match one of active, inactive

These recorded examples may help you get a feel for the data.
| Compound | Target under test | Cat |
| --- | --- | --- |
| N#CC(C#N)=C/C=C/c1c(Cl)cccc1Cl | NCI-H23 | inactive |
| OCCCSCCO | NCI-H23 | inactive |
| C[N+]1(CCNP(=S)(NCC[N+]2(C)Cc3c(ccc4c3OCO4)C3C2c2cc4c(cc2C[C@@H]3O)OCO4)NCC[N+]2(C)Cc3c(ccc4c3OCO4)C3C2c2cc4c(cc2C[C@@H]3O)OCO4)Cc2c(ccc3c2OCO3)C2C1c1cc3c(cc1C[C@H]2O)OCO3 (stereo not given in full) | NCI-H23 | active |

[in] Please state the recorded outcome for this compound: CC1(C)C2CCC(N)(C2)C1O (stereo not given)
[out] inactive

[in] Please state the recorded outcome for this compound: CO[C@H](C)[C@](O)(C(=O)OCC1=CCN2CC[C@@H](O)[C@H]12)C(C)C
[out] inactive

[in] Please state the recorded outcome for this compound: CCCCCCCCCCCC(=O)CC(=O)c1c(O)cccc1O
[out] inactive

[in] Please state the recorded outcome for this compound: Cc1c2c(ccc3ccccc32)c[n+]2ccccc12
[out] inactive

[in] Please state the recorded outcome for this compound: O=C(CCc1cccc(O)c1)NCCc1cccc(O)c1
[out] inactive

[in] Please state the recorded outcome for this compound: CCCC1=C(OC)C(=O)c2c(C)cc(Cl)nc2C1=O
[out] inactive

[in] Please state the recorded outcome for this compound: CN(C)CCNC(=O)c1cccc2c(Nc3ccc(S(N)(=O)=O)cc3)c3ccccc3nc12
[out] inactive
